# System: UO-31
# assayName: NCI tumour cell line growth inhibition, 48 h
The source made the active and inactive calls. Cut-off read from the data, not from the text of the source: active = GI50 up to about 1.1 µM and inactive = higher.
Each entry below carries its recorded GI50.

Sample answers from the record:
1) C=C(C)C(=O)OC1C[C@H](COC(C)=O)C2CC=C(CO)C2C2OC(=O)C(=C)[C@H]12 (stereo not given in full)    39.2 µM (inactive)
2) C1CN2N3CCCC23C1 (stereo not given)    > 100 µM (inactive)
3) CS(=O)(=O)OCC1CN(S(C)(=O)=O)c2cc(O)ccc21 (stereo not given)    3.26 µM (inactive)
4) O=S1(=O)CS(=O)(=O)OCCO1    61 µM (inactive)
5) C=C(NC(=O)C(=C)NC(=O)c1ccc2c(n1)-c1coc(n1)C(=C)NC(=O)C(=C)NC(=O)c1nc(oc1C)C(=C)NC(=O)C(C(C)(C)O)NC(=O)C(=C)NC(=O)c1coc(n1)/C(=C/C)NC(=O)[C@H]([C@@H](C)O)NC(=O)c1csc-2n1)C(N)=O (stereo not given in full)    > 87.5 µM (inactive)

## Task Would you kindly share the measured GI50 for C/C=C(\C)C(=O)OC1C(C)=C2C(C1OC(=O)CCCC)C(C)(OC(C)=O)CC(OC(=O)CCCC)C1(O)C2OC(=O)C1(C)O (stereo not given) ?
## Result 15.4 µM (inactive)

## Task Would you kindly share the measured GI50 for COc1ccc(C2S/C(=C\c3ccccc3O)C(=O)N2NC(=O)Cc2ccccc2)cc1 (stereo not given) ?
## Result > 100 µM (inactive)

## Task Would you kindly share the measured GI50 for `Cc1nc2n(c1/C=C1/C(=O)Nc3cccc(Cl)c31)CCS2` ?
## Result 29.8 µM (inactive)

## Task Would you kindly share the measured GI50 for `Cc1cc(NS(=O)(=O)c2ccc(Nc3c4ccccc4nc4c(C(=O)N5CCN(CCOS(C)(=O)=O)CC5)cccc34)cc2)no1` ?
## Result > 100 µM (inactive)

## Task Would you kindly share the measured GI50 for `CC1=NN2C(=N)/C(=C/c3ccc(F)cc3)C(=O)N=C2S1` ?
## Result > 100 µM (inactive)
